test system: mice; test: In vivo delivery of FLuc-mRNA lipid nanoparticles in mice, in vivo imaging (IVIS); details: IV, liver; DMG-PEG2000:DSPC:Chol:compound 1.00:10.00:33.00:56.00, N/P 42
readout_kind: % of organ targeting (%)
# output: bare number, implied unit %

Solved cases (3 shown):
molecule="CCCCCCCCCCNC(=O)C(O)CN(CCCN(C)CCCN(CC(O)C(=O)NCCCCCCCCCC)CC(O)C(=O)NCCCCCCCCCC)CC(O)C(=O)NCCCCCCCCCC (centres unmarked)" numeric_value=0.55
molecule="CCCCCCCCCCCCNCC(O)CN(CCCCCN(C)CCCCCN(CC(O)CNCCCCCCCCCCCC)CC(O)C(=O)NCCCCCCCCCCCC)CC(O)C(=O)NCCCCCCCCCCCC (centres unmarked)" numeric_value=0.64
molecule="CCCCCCC(CCCCCC)C(=O)OCCCCCCOC(=O)C(O)CN(C)CCN(C)CCN(C)CC(O)C(=O)OCCCCCCOC(=O)C(CCCCCC)CCCCCC (centres unmarked)" numeric_value=5.08

Test system mice; read-out % of organ targeting; what value for CCCCCCCCCCOC(=O)C(O)CN(CCCN(C)CCCN(CC(O)C(=O)OCCCCCCCCCC)CC(O)C(=O)OCCCCCCCCCC)CC(O)C(=O)OCCCCCCCCCC (centres unmarked) ? 2.04

Quick check: % of organ targeting on mice, item CCCCCCC(CCCCCC)C(=O)OCCCCCCOC(=O)C(O)CN(CCCN(C)CCCN(CC(O)C(=O)OCCCCCCOC(=O)C(CCCCCC)CCCCCC)CC(O)C(=O)OCCCCCCOC(=O)C(CCCCCC)CCCCCC)CC(O)C(=O)OCCCCCCOC(=O)C(CCCCCC)CCCCCC (centres unmarked) ? 18.15

Just for reference, patent US12233161B1 is where these values come from.
